These data points were gathered from patent US9481674B1.

Target: recombinant RORγ Ligand Binding Domain (LBD) protein (Homo sapiens)
Construct: 6×His; GST
Sequence (P51449 269-508 limits assumed): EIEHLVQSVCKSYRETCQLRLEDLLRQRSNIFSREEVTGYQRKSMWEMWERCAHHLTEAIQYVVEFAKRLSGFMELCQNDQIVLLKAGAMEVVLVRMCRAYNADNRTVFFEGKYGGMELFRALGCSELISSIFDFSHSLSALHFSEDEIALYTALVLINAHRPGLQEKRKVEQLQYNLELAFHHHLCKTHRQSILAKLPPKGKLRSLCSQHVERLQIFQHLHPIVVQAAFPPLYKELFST
Test: Radio-Ligand RORγ Binding Assay (Assay 1)
Conditions: cell-free competition with 25-hydroxy[26,27-3H]-cholesterol; read-out: RORγ Binding Ki Range* (nM) (Assay 1)
measure.name: Ki

Some compounds with known Ki results, for comparison:
>>> readout_value("CCS(=O)(=O)c1ccc([C@H](CO)NC(=O)c2cnc3c(c2)CN(C[C@H]2CC[C@H](C(F)(F)F)CC2)[C@H]3CC2CCOCC2)cc1 [Compound 27]")
"< 100 nM"
>>> readout_value("CCS(=O)(=O)c1ccc([C@H](NC(=O)c2cnc3c(c2)CN(C[C@H]2CC[C@H](C(F)(F)F)CC2)[C@H]3C(C)C)[C@H](C)O)cc1 (single isomer, unassigned) [Compound 39]")
"< 100 nM"
>>> readout_value("CCS(=O)(=O)c1ccc([C@H](CO)NC(=O)c2cnc3c(c2)CN(C[C@H]2CC[C@H](C(F)(F)F)CC2)[C@H]3C(C)C)cc1 [Compound 46]")
"< 100 nM"
>>> readout_value("CCS(=O)(=O)c1ccc([C@H](CO)NC(=O)c2cnc3c(c2)CN(C[C@H]2CC[C@H](C(F)(F)F)CC2)[C@@H]3C)cc1 [Compound 28]")
"> 1000 nM"

Reported Ki for CCS(=O)(=O)c1ccc([C@H](CO)NC(=O)c2cnc3c(c2)CN(C[C@@H]2CC[C@@H](C(F)(F)F)OC2)[C@H]3C(C)C)nc1 (single isomer, unassigned) [Compound 1] was < 100 nM
